Exercise: for every item that follows, state its recorded protein stability index.
B1: LOXL2 (parent)
chain: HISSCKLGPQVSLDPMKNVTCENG

# Variants of: B1
# assay-procedure: protein stability index of a GFP-peptide fusion (GPS, HEK-293T) (PSI 1-6); higher = more stable;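 also: lentivirally expressed fusions sorted by FACS into six bins by GFP to DsRed ratio, PSI derived from sequencing read proportions per bin multiplied by bin number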
# measurement-conditions: c terminus: a fixed tail appended
Give bare numbers.

Illustrative cases are given below, each with its answer.
In [3]: df
Out[3]:
   variant_key  recorded_value
0         N23K            3.98
1         V19M            3.55
2         L13Q            4.28
3         S12E            4.48
4          K6N            4.32
5         E22Y            2.44

For each of the variants below, state protein stability index.
1. N18Q
2. L7S
3. L7W
4. N23V
5. K6E

[4.2, 3.96, 2.28, 3.53, 4.35]
